In this section, each of the variants is paired with its reported self-cleavage.
B1: Hairpin Ribozyme (parent)
chain: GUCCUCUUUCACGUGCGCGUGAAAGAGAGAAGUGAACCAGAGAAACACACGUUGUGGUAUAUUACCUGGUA

- Variants of: B1
- PROTOCOL_DETAILS: self-cleavage, relative activity (ratio to wild type); higher = more cleavage; co-transcriptional
Returns: the value as a bare number; no unit string appended.

Worked examples follow.
C48G U53G : 0.128
A41C U63C : 0.192
A45G C65A : 0.349
A43G U63A : 0.134
C4A U8G : 0.0842

Kindly consider the entry below.
Quick one: self-cleavage of U53A U62A ?
0.266
